# EXPERIMENTAL_SYSTEM: Human immunodeficiency virus type 1 protease (Human immunodeficiency virus 1, UniProt Q72874)
# ASSAY_NOTES: Inhibitory activity against recombinant HIV-1 Protease
pIC50: −log10 of the molar value.
Parameter threshold = 8. Response is Criterion met when pIC50 meets or exceeds it, else Criterion not met.

Please check the record `CC(=O)N[C@@H](Cc1ccccc1)C(O)[C@H](Cc1ccccc1)NC(C)=O` and state if its pIC50 is at or above 8. Criterion not met

Given `CC(C)(C)OC(=O)N[C@@H](Cc1ccccc1)[C@H](O)[C@@H](O)[C@H](Cc1ccccc1)NC(=O)OC(C)(C)C` , state whether its pIC50 is at least 8. Criterion not met

Does pIC50 meet or surpass 8 for `CC(C)(C)OC(=O)N[C@@H](Cc1ccccc1)[C@@H](O)[C@H](O)[C@H](Cc1ccccc1)NC(=O)OC(C)(C)C` ? Criterion not met

Decide: is the reported value of pIC50 for CC[C@H](C)[C@H](NC(=O)OCc1ccccc1)C(=O)N[C@@H](Cc1ccccc1)C(O)[C@H](Cc1ccccc1)NC(=O)[C@H](NC(=O)OCc1ccccc1)[C@@H](C)CC (some centres not stated) equal to or greater than 8? Criterion met

Decide: is the reported value of pIC50 for `CC(C)[C@H](NC(=O)OCc1ccccc1)C(=O)N[C@@H](Cc1ccccc1)[C@@H](O)[C@H](O)[C@H](Cc1ccccc1)NC(=O)[C@H](NC(=O)OCc1ccccc1)C(C)C` equal to or greater than 8? Criterion met
